- ASSAYED TARGET: UniProtKB P50406
MEASUREMENT KIND: IC50 (nM)
Dear colleague, please return just the value in nM, with no unit written.

Give measured IC50 for O=C(CCCCN1CCC(c2noc3cc(F)ccc23)CC1)c1cc2c3c(c1)CCN3C(=O)CC2 (UniProtKB P50406).
178

====

- TEST SUMMARY: Tmax in Sprague-Dawley rat at 10 mg/kg, po by LC-MS/MS analysis
- Assay type: ADME, organism-based
- APPLIED CONDITIONS: in vivo
MEASUREMENT KIND: Tmax (h)
Dear colleague, please return just the value in h, with no unit written.

Quickly give me recorded Tmax for O=C(CCCCN1CCC(c2noc3cc(F)ccc23)CC1)c1cc2c3c(c1)CCN3C(=O)CC2
1

====

- TEST SUMMARY: Oral bioavailability in Sprague-Dawley rat at 10 mg/kg by LC-MS/MS analysis
- Assay type: ADME, organism-based
- APPLIED CONDITIONS: in vivo
MEASUREMENT KIND: bioavailability (%)
Dear colleague, please return just the value in %, with no unit written.

Quickly give me recorded bioavailability for O=C(CCCCN1CCC(c2noc3cc(F)ccc23)CC1)c1cc2c3c(c1)CCN3C(=O)CC2
58.8

====

Below are pKi values measured for 5-hydroxytryptamine receptor 2C (Rattus norvegicus).
Keep it numeric: pKi is minus log10 of the concentration in mol/L.

Quickly give me recorded pKi for O=C1CCc2cc(C(O)CCCN3CCC(c4noc5cc(F)ccc45)CC3)cc3c2N1CC3 (centres undefined)
6.13

Quickly give me recorded pKi for O=C(CCCCN1CCC(c2noc3cc(F)ccc23)CC1)c1cc2c3c(c1)CCN3C(=O)CC2
6.21

Quickly give me recorded pKi for O=C1CCc2cc(CCCCN3CCC(c4noc5cc(F)ccc45)CC3)cc3c2N1CC3
6.27

Quickly give me recorded pKi for O=C1CCc2cc(C(O)CCCCN3CCC(c4noc5cc(F)ccc45)CC3)cc3c2N1CC3 (centres undefined)
7.47

====

MEASUREMENT KIND: pKi
Keep it numeric: pKi is minus log10 of the concentration in mol/L.

Give measured pKi for O=C1CCc2cc(CCCCN3CCC(c4noc5cc(F)ccc45)CC3)cc3c2N1CC3 (5-hydroxytryptamine receptor 6 (Homo sapiens)).
7.75

Give measured pKi for O=C(CCCCN1CCC(c2noc3cc(F)ccc23)CC1)c1cc2c3c(c1)CCN3C(=O)CC2 (5-hydroxytryptamine receptor 6 (Homo sapiens)).
8.26

Give measured pKi for O=C1CCc2cc(C(O)CCCCN3CCC(c4noc5cc(F)ccc45)CC3)cc3c2N1CC3 (stereo not drawn) (5-hydroxytryptamine receptor 6 (Homo sapiens)).
7.53

====

- ASSAYED TARGET: Sigma non-opioid intracellular receptor 1 (Cavia porcellus)
- Sequence (Q60492 whole entry): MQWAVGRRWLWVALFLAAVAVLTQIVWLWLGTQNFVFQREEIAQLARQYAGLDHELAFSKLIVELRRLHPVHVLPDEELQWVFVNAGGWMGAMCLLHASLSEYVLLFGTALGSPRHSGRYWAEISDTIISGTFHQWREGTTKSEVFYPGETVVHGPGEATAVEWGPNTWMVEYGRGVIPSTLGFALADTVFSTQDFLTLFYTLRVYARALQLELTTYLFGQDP
- TEST SUMMARY: Displacement of [3H]-(+)-pentazocine from sigma1 receptor in guinea pig brain membranes after 180 mins by liquid scintillation counting
MEASUREMENT KIND: Ki

Quickly give me recorded Ki for O=C(CCCCN1CCC(c2noc3cc(F)ccc23)CC1)c1cc2c3c(c1)CCN3C(=O)CC2
> 1000 nM

====

- TEST SUMMARY: Cmax in Sprague-Dawley rat at 10 mg/kg, po by LC-MS/MS analysis
- Format: ADME, organism-based
- Design: dose 10 mg/kg, route oral
- APPLIED CONDITIONS: in vivo
MEASUREMENT KIND: Cmax (ng/mL)
Dear colleague, please return just the value in ng/mL, with no unit written.

Quickly give me recorded Cmax for O=C(CCCCN1CCC(c2noc3cc(F)ccc23)CC1)c1cc2c3c(c1)CCN3C(=O)CC2
3730

====

- ASSAYED TARGET: D(1A) dopamine receptor (Rattus norvegicus)
- Sequence (P18901 whole entry): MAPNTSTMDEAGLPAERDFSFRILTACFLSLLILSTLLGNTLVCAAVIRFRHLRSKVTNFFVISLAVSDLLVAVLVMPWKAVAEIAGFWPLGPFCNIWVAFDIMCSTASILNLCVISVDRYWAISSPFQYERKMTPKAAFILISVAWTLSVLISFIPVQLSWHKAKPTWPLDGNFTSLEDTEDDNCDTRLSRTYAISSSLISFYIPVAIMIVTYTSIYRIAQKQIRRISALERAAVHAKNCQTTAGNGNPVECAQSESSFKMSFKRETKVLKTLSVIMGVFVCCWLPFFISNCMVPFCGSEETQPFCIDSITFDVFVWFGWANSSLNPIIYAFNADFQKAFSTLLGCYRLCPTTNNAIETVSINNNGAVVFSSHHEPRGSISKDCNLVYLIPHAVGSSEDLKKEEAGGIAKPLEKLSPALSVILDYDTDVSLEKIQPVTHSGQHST
- TEST SUMMARY: Displacement of [3H]-SCH23390 from dopamine D1 receptor in rat strriatum homogenates after 20 mins by liquid scintillation counting
MEASUREMENT KIND: Ki (µM)
Dear colleague, please return just the value in µM, with no unit written.

Quickly give me recorded Ki for O=C(CCCCN1CCC(c2noc3cc(F)ccc23)CC1)c1cc2c3c(c1)CCN3C(=O)CC2
0.0769

====

- TEST SUMMARY: AUC (0 to t) in Sprague-Dawley rat at 1 mg/kg, iv by LC-MS/MS analysis
- Type: ADME, organism-based
- APPLIED CONDITIONS: in vivo
MEASUREMENT KIND: AUC(0-t) (ng·h/mL)
Dear colleague, please return just the value in ng·h/mL, with no unit written.

Quickly give me recorded AUC(0-t) for O=C(CCCCN1CCC(c2noc3cc(F)ccc23)CC1)c1cc2c3c(c1)CCN3C(=O)CC2
3140

====

- ASSAYED TARGET: 5-hydroxytryptamine receptor 2A (Rattus norvegicus)
- Sequence (P14842 whole entry): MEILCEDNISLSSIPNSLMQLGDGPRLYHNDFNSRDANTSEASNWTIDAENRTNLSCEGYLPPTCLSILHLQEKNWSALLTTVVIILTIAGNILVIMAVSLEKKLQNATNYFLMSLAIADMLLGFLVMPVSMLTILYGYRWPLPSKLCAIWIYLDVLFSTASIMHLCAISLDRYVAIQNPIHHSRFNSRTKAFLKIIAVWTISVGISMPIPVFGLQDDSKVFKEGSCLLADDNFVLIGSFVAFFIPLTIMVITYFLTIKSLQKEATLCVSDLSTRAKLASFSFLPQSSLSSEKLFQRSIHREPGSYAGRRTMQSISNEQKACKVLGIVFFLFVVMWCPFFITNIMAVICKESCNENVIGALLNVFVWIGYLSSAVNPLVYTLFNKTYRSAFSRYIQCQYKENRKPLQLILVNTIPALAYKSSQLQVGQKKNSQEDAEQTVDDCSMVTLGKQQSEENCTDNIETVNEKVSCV
pKi: −log10 of the molar value.
Please enter Condition met where pKi is greater than or equal to 7, and Condition not met where it is lower.

Given N#Cc1ccc(N2CCN(CCC(=O)c3cc4c5c(c3)CCN5C(=O)CC4)CC2)c(F)c1 , state whether its pKi is at least 7.
Condition not met

Given O=C(CCCCN1CCC(c2noc3cc(F)ccc23)CC1)c1cc2c3c(c1)CCN3C(=O)CC2 , state whether its pKi is at least 7.
Condition met

Given O=C(CCCCCN1CCC(c2noc3cc(F)ccc23)CC1)c1cc2c3c(c1)CCN3C(=O)CC2 , state whether its pKi is at least 7.
Condition met

Given O=C(CCN1CCN(c2ncccn2)CC1)c1cc2c3c(c1)CCC(=O)N3CCC2 , state whether its pKi is at least 7.
Condition not met

Given O=C1CCc2cc(C(O)CCCCN3CCC(c4noc5cc(F)ccc45)CC3)cc3c2N1CC3 (centres undefined) , state whether its pKi is at least 7.
Condition met

Given O=C(CN1CCC(c2noc3cc(F)ccc23)CC1)c1cc2c3c(c1)CCC(=O)N3CCC2 , state whether its pKi is at least 7.
Condition not met

Given Cc1cccc(N2CCN(CCC(=O)c3cc4c5c(c3)CCN5C(=O)CC4)CC2)c1C , state whether its pKi is at least 7.
Condition not met

Given Cc1cccc(N2CCN(CCCC(=O)c3cc4c5c(c3)CCC(=O)N5CCC4)CC2)c1C , state whether its pKi is at least 7.
Condition met

====

Sequence of the target: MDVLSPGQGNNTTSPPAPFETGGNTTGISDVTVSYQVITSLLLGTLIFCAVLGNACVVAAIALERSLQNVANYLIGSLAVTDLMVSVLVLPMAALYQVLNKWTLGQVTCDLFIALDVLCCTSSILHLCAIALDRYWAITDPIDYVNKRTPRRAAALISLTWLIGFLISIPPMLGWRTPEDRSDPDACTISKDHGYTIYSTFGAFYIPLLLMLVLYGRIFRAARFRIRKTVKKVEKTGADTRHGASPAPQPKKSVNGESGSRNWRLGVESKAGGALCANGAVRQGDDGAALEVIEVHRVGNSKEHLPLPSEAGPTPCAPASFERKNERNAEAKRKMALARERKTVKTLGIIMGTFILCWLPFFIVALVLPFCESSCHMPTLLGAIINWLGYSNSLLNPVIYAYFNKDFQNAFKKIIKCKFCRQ
MEASUREMENT KIND: IC50 (nM)
Dear colleague, please return just the value in nM, with no unit written.

Quickly give me recorded IC50 for O=C(CCCCN1CCC(c2noc3cc(F)ccc23)CC1)c1cc2c3c(c1)CCN3C(=O)CC2
588

====

MEASUREMENT KIND: Ki (nM)
Dear colleague, please return just the value in nM, with no unit written.

Give measured Ki for O=C1CCc2cc(CCCN3CCC(c4noc5cc(F)ccc45)CC3)cc3c2N1CCC3 (5-hydroxytryptamine receptor 2A (Rattus norvegicus, UniProt P14842)).
73.9

Give measured Ki for O=C(CCCN1CCC(c2noc3cc(F)ccc23)CC1)c1cc2c3c(c1)CCN3C(=O)CC2 (5-hydroxytryptamine receptor 2A (Rattus norvegicus, UniProt P14842)).
9.9

Give measured Ki for O=C(CCCN1CCN(c2nsc3ccccc23)CC1)c1cc2c3c(c1)CCC(=O)N3CCC2 (5-hydroxytryptamine receptor 2A (Rattus norvegicus, UniProt P14842)).
87.9

Give measured Ki for CC1CC(=O)N2CCCc3cc(CCCCN4CCC(c5noc6cc(F)ccc56)CC4)cc1c32 (stereo unspecified) (5-hydroxytryptamine receptor 2A (Rattus norvegicus, UniProt P14842)).
83.4

Give measured Ki for O=C(CCN1CCN(c2nsc3ccccc23)CC1)c1cc2c3c(c1)CCN3C(=O)CC2 (5-hydroxytryptamine receptor 2A (Rattus norvegicus, UniProt P14842)).
68.4

Give measured Ki for COc1ccccc1N1CCN(CCC(=O)c2cc3c4c(c2)CCC(=O)N4CCC3)CC1 (5-hydroxytryptamine receptor 2A (Rattus norvegicus, UniProt P14842)).
178

Give measured Ki for Cc1cccc(N2CCN(CCC(=O)c3cc4c5c(c3)CCC(=O)N5CCC4)CC2)c1C (5-hydroxytryptamine receptor 2A (Rattus norvegicus, UniProt P14842)).
207

Give measured Ki for O=C(CCN1CCN(c2ccccc2)CC1)c1cc2c3c(c1)CCC(=O)N3CCC2 (5-hydroxytryptamine receptor 2A (Rattus norvegicus, UniProt P14842)).
752

Give measured Ki for O=C(CCCN1CCN(c2cccc(Cl)c2Cl)CC1)c1cc2c3c(c1)CCN3C(=O)CC2 (5-hydroxytryptamine receptor 2A (Rattus norvegicus, UniProt P14842)).
37.8

Give measured Ki for O=C(CCN1CCC(c2nc3ccccc3s2)CC1)c1cc2c3c(c1)CCC(=O)N3CCC2 (5-hydroxytryptamine receptor 2A (Rattus norvegicus, UniProt P14842)).
173

Give measured Ki for O=C1CCc2cc(CCCCN3CCN(c4nsc5ccccc45)CC3)cc3c2N1CCC3 (5-hydroxytryptamine receptor 2A (Rattus norvegicus, UniProt P14842)).
83.9

Give measured Ki for O=C(CCCN1CCC(c2noc3cc(F)ccc23)CC1)c1cc2c3c(c1F)CCN3C(=O)CC2 (5-hydroxytryptamine receptor 2A (Rattus norvegicus, UniProt P14842)).
21.9

Give measured Ki for O=C(CCCCN1CCC(c2noc3cc(F)ccc23)CC1)c1cc2c3c(c1)CCC(=O)N3CCC2 (5-hydroxytryptamine receptor 2A (Rattus norvegicus, UniProt P14842)).
19.1

Give measured Ki for O=C(CCN1CCN(c2cccc(Cl)c2Cl)CC1)c1cc2c3c(c1)CCN3C(=O)CC2 (5-hydroxytryptamine receptor 2A (Rattus norvegicus, UniProt P14842)).
92.5

Give measured Ki for CC1CC(=O)N2CCCc3cc(C(=O)CCCN4CCC(c5noc6cc(F)ccc56)CC4)cc1c32 (stereo unspecified) (5-hydroxytryptamine receptor 2A (Rattus norvegicus, UniProt P14842)).
32.2

Give measured Ki for O=C1CCc2cc(CCCCN3CCC(c4noc5cc(F)ccc45)CC3)cc3c2N1CC3 (5-hydroxytryptamine receptor 2A (Rattus norvegicus, UniProt P14842)).
19.3
